Where do these numbers come from? They come from ChEMBL document CHEMBL3994633.

# Assayed system: Free fatty acid receptor 2 (Homo sapiens)
# Sequence (O15552 whole entry): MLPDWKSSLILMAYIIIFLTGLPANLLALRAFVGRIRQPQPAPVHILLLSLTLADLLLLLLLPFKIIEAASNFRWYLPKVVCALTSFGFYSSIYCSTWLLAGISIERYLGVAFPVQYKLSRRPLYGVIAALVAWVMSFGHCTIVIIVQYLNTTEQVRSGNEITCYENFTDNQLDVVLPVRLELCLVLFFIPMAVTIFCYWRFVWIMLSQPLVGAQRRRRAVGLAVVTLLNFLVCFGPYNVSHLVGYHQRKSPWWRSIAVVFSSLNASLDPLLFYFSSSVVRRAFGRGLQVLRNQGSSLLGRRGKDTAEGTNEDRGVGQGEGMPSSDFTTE
# Assay overview: Agonist activity at human FFA2 receptor by FLIPR assay
Property label: EC50
Kindly report the value followed by its unit.

Query :: Suppose we examine the molecule COc1ccc(C(F)(F)F)cc1COc1ccc(CCC(=O)O)cc1C ; what EC50 value has been reported?
Result :: 25.3 µM

----------
Field: %max. Provide a value for each of the compounds that follow.
# Assayed system: Free fatty acid receptor 4 (Homo sapiens) (UniProt Q5NUL3)
# Sequence (whole entry): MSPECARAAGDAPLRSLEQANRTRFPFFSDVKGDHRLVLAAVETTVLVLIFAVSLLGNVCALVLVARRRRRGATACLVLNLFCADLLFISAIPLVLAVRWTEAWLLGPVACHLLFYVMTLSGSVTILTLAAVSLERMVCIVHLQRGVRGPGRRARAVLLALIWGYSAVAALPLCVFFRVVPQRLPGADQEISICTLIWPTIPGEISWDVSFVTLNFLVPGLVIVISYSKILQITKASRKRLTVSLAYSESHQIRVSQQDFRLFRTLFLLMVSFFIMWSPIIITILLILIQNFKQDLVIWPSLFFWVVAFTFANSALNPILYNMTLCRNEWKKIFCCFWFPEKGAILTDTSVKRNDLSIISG
# Assay overview: Agonist activity at human FFA4 receptor expressed in human U2OS cells co-expressing Galpha16 assessed as calcium mobilization by Fluo-4 dye based FLIPR assay relative to GSK137647A
# Format: functional, cell-based
Report as a plain number; the unit % is understood.

Query :: Suppose we examine the compound Cc1cc(CCC(=O)O)ccc1OCc1ccccc1Br ; what %max value has been reported?
Result :: 116

Query :: Likewise for Cc1cc(CCC(=O)O)ccc1OCc1ccccc1Cl ?
Result :: 130

Query :: Likewise for O=C(O)CCc1ccc(OCc2ccccc2SC(F)(F)F)cc1 ?
Result :: 105

Query :: Likewise for Cc1c(CCC(=O)O)ccc(OCc2ccccc2SC(F)(F)F)c1C ?
Result :: 77

Query :: Likewise for COc1ccc(C(F)(F)F)cc1COc1ccc(CCC(=O)O)cc1C ?
Result :: 124

Query :: Likewise for Cc1cc(CCC(=O)O)ccc1OCc1ccccc1SC(F)(F)F ?
Result :: 108

Query :: Likewise for O=C(O)CCc1ccc(OCc2ccccc2SC(F)(F)F)c(CO)c1 ?
Result :: 53

Query :: Likewise for Cc1cc(CCC(=O)O)ccc1OCc1cccc(Cl)c1 ?
Result :: 104

Query :: Likewise for Cc1cc(OCc2ccccc2SC(F)(F)F)ccc1CCC(=O)O ?
Result :: 90

Query :: Likewise for Cc1cc(CCC(=O)O)ccc1OCc1ccccc1 ?
Result :: 83

Query :: Likewise for O=C(O)CCc1ccc(OCc2ccccc2SC(F)(F)F)c(Cl)c1 ?
Result :: 80

Query :: Likewise for Cc1cccc(COc2ccc(CCC(=O)O)cc2C)c1 ?
Result :: 100

Query :: Likewise for Cc1cc(COc2ccc(CCC(=O)O)cc2C)cc(OC(C)C)c1 ?
Result :: 112

Query :: Likewise for Cc1ccc(OC(C)C)c(COc2ccc(CCC(=O)O)cc2C)c1 ?
Result :: 106

Query :: Likewise for Cc1cc(C)cc(COc2ccc(CCC(=O)O)cc2C)c1 ?
Result :: 66

Query :: Likewise for Cc1cc(CCC(=O)O)ccc1OCc1cccc(C(F)(F)F)c1 ?
Result :: 117

Query :: Likewise for Cc1cc(CCC(=O)O)ccc1OCc1cc(C(F)(F)F)ccc1O ?
Result :: 78

Query :: Likewise for COc1cc(CCC(=O)O)ccc1OCc1ccccc1SC(F)(F)F ?
Result :: 110

Query :: Likewise for Cc1ccc(Br)c(COc2ccc(CCC(=O)O)cc2C)c1 ?
Result :: 118

Query :: Likewise for O=C(O)COc1ccc(OCc2ccccc2SC(F)(F)F)cc1 ?
Result :: 85

Query :: Likewise for O=C(O)CCc1ccc(OCc2ccccc2SC(F)(F)F)c2ccccc12 ?
Result :: 105

Query :: Likewise for Cc1cc(CCC(=O)O)ccc1OCc1cccc(Oc2ccccc2)c1 ?
Result :: 95

Query :: Likewise for Cc1cc(CCC(=O)O)ccc1OCc1ccccc1OC(C)C ?
Result :: 118

Query :: Likewise for Cc1cc(CCC(=O)O)ccc1OCc1ccccc1C(F)(F)F ?
Result :: 103

Query :: Likewise for Cc1cc(COc2ccc(CCC(=O)O)cc2C)cc(Oc2ccccc2)c1 ?
Result :: 97
